Values compiled from ChEMBL document CHEMBL4382289.

# SYSTEM TESTED: Bifunctional epoxide hydrolase 2 (Homo sapiens, UniProt P34913)
# PROTOCOL SUMMARY: Inhibition of recombinant human sEH preincubated for 10 mins followed by PHOME substrate addition and measured after 60 mins by fluorescence-based assay
RESULT TYPE: IC50 (nM)

O=C(Nc1ccc(OCc2nc3ccccc3s2)cc1)Nc1ccc(Cl)c(Cl)c1 = 10.3

I = Cc1cc(NC(=O)Nc2ccccc2Cl)ccc1OCc1nc2ccccc2s1
II = Cc1cc(NC(=O)Nc2ccc(Cl)cc2)ccc1OCc1nc2ccccc2s1
III = Cc1cc(OCc2nc3ccccc3s2)ccc1NC(=O)Nc1ccccc1
Task field, ranking: reported IC50, descending order. # output: labels, in the requested order
III, I, II
(III: 61.9 nM, I: 35.1 nM, II: 4.1 nM)

I = Cc1cc(OCc2nc3ccccc3s2)ccc1NC(=O)Nc1ccc(Cl)cc1
II = O=C(Nc1ccc(SCc2nc3ccccc3s2)cc1)Nc1ccc(Cl)c(Cl)c1
Out of I and II , name the one with the higher IC50. Output the label that corresponds to your choice.
II

a = Cc1cc(NC(=O)Nc2ccccc2)ccc1OCc1nc2ccccc2s1
b = O=C(Nc1ccc(OCc2nc3ccccc3s2)cc1)Nc1cc(Cl)cc(Cl)c1
c = O=C(Nc1ccc(OCc2nc3ccccc3s2)cc1)Nc1ccccc1Cl
I would appreciate it if you could sort these 3 compounds by IC50, starting from the smallest number. In plain terms: list the labels in the order you were asked to.
a, b, c
(a: 6.5 nM, b: 15.2 nM, c: 279 nM)

A = O=C(Nc1ccc(/C=C/c2nc3ccccc3s2)cc1)Nc1ccc(Cl)c(Cl)c1
B = Cc1cc(OCc2nc3ccccc3s2)ccc1NC(=O)Nc1cc(Cl)cc(Cl)c1
Which entry has a larger number for IC50, A or B ? State the label of the item chosen.
B

###

# SYSTEM TESTED: Arachidonate 5-lipoxygenase-activating protein (Homo sapiens)
# PROTOCOL SUMMARY: Inhibition of 5-LO in human neutrophils preincubated for 10 mins followed by Ca2+ ionophore A23187 addition and measured after 10 mins by RP-HPLC analysis
RESULT TYPE: IC50 (µM)

Solved cases (3 shown):
Cc1cc(OCc2nc3ccccc3s2)ccc1NC(=O)Nc1cccc(Cl)c1 = 0.16
O=C(Nc1ccc(OCc2nc3ccccc3s2)cc1)Nc1cc(Cl)cc(Cl)c1 = 0.09
Cc1cc(NC(=O)Nc2ccccc2)ccc1OCc1nc2ccccc2s1 = 2.07

P = O=C(Nc1ccc(SCc2nc3ccccc3s2)cc1)Nc1ccc(Cl)c(Cl)c1
Q = Cc1cc(NC(=O)Nc2cccc(Cl)c2)ccc1OCc1nc2ccccc2s1
Lab note: check whether P or Q has the lower measured IC50. Indicate your choice by writing its label.
P

a = Cc1cc(OCc2nc3ccccc3s2)ccc1NC(=O)Nc1ccc(Cl)cc1
b = Cc1cc(NC(=O)Nc2ccc(Cl)c(Cl)c2)ccc1OCc1nc2ccccc2s1
c = O=C(Nc1ccc(Cl)cc1)Nc1ccc(OCc2nc3ccccc3s2)cc1
d = O=C(Nc1ccc(/C=C/c2nc3ccccc3s2)cc1)Nc1ccc(Cl)c(Cl)c1
Order the entries by their reported IC50, beginning at the minimum. Please list the labels according to the requested order.
a, c, b, d
(a: 0.57 µM, c: 1.01 µM, b: 2.17 µM, d: 10.8 µM)

I = Cc1cc(NC(=O)Nc2ccccc2Cl)ccc1OCc1nc2ccccc2s1
II = O=C(Nc1ccccc1)Nc1ccc(OCc2nc3ccccc3s2)cc1
III = Cc1cc(OCc2nc3ccccc3s2)ccc1NC(=O)Nc1cc(Cl)cc(Cl)c1
rank_up(items): orders items by reported IC50 in ascending numerical order. List the labels in the requested order.
III, II, I

P = Cc1cc(NC(=O)Nc2cc(Cl)cc(Cl)c2)ccc1OCc1nc2ccccc2s1
Q = O=C(Nc1ccc(OCc2nc3ccccc3s2)cc1)Nc1ccccc1Cl
API: POST /compare with P and Q ; response names the item with higher IC50. Field: selected label. Fill in the label of the entry you choose.
P
(P: 0.72 µM, Q: 0.36 µM)

###

# SYSTEM TESTED: Bifunctional epoxide hydrolase 2 (Homo sapiens, UniProt P34913)
# Sequence (P34913 whole entry): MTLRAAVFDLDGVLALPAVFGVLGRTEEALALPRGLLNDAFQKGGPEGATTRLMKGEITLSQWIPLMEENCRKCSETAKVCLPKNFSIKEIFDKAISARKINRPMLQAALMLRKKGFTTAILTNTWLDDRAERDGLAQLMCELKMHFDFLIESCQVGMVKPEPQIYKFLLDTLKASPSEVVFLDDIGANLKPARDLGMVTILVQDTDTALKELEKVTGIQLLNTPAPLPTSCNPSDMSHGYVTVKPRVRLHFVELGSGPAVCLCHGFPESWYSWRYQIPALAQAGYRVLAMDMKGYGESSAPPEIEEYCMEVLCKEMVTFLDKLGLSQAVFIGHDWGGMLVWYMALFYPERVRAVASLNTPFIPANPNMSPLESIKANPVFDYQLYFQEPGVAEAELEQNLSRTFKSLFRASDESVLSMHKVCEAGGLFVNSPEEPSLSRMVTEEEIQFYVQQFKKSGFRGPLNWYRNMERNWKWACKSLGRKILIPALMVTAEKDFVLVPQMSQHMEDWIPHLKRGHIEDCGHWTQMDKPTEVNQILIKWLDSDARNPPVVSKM
# PROTOCOL SUMMARY: Inhibition of recombinant human sEH preincubated for 10 mins followed by PHOME substrate addition and measured after 60 mins by fluorescence-based assay
pIC50: −log10 of the molar value.
RESULT TYPE: pIC50

Past entries and their recorded results:
O=C(Nc1ccc(OCc2nc3ccccc3s2)cc1)Nc1cccc(Cl)c1 = 7.59
Cc1cc(NC(=O)Nc2cccc(Cl)c2)ccc1OCc1nc2ccccc2s1 = 8.70
Cc1cc(NC(=O)Nc2cc(Cl)cc(Cl)c2)ccc1OCc1nc2ccccc2s1 = 9.10
Cc1cc(OCc2nc3ccccc3s2)ccc1NC(=O)Nc1cccc(Cl)c1 = 7.80
O=C(Nc1ccc(Cl)cc1)Nc1ccc(OCc2nc3ccccc3s2)cc1 = 7.86

a = O=C(Nc1ccc(CCc2nc3ccccc3s2)cc1)Nc1ccc(Cl)c(Cl)c1
b = Cc1cc(OCc2nc3ccccc3s2)ccc1NC(=O)Nc1ccc(Cl)c(Cl)c1
c = Cc1cc(NC(=O)Nc2ccc(Cl)c(Cl)c2)ccc1OCc1nc2ccccc2s1
d = Cc1cc(OCc2nc3ccccc3s2)ccc1NC(=O)Nc1ccccc1Cl
e = O=C(Nc1ccccc1)Nc1ccc(OCc2nc3ccccc3s2)cc1
List items by pIC50 in falling order. Please respond by ranking the labels in the order requested.
c, a, b, e, d

###

# SYSTEM TESTED: Arachidonate 5-lipoxygenase-activating protein (Homo sapiens, UniProt P20292)
# Sequence (P20292 whole entry): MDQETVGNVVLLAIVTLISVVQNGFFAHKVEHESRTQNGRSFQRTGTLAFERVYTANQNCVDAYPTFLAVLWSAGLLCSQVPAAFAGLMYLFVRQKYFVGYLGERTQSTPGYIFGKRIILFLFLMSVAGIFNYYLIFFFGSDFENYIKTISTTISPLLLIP
# PROTOCOL SUMMARY: Inhibition of 5-LO in human neutrophils preincubated for 10 mins followed by Ca2+ ionophore A23187 addition and measured after 10 mins by RP-HPLC analysis
RESULT TYPE: IC50 (nM)

Recorded IC50, per entry:
O=C(Nc1ccc(OCc2nc3ccccc3s2)cc1)Nc1ccc(Cl)c(Cl)c1 = 570
Cc1cc(OCc2nc3ccccc3s2)ccc1NC(=O)Nc1ccccc1Cl = 830

P = Cc1cc(OCc2nc3ccccc3s2)ccc1NC(=O)Nc1ccccc1
Q = O=C(Nc1ccc(OCc2nc3ccccc3s2)cc1)Nc1cccc(Cl)c1
Smaller IC50 value? Options are P and Q Record your answer as the label of the chosen record.
Q
(Q: 170 nM, P: 730 nM)
